Tested on: SF-268
method_description: NCI tumour cell line growth inhibition, 48 h
The source made the active and inactive calls. Cut-off read from the data, not from the text of the source: active = GI50 up to about 1.1 µM and inactive = higher.
Form entry, call: pick from active, inactive

Known results for molecules:
# molecule, answer_label
measured = [
    ("CC(C)NC(=O)OCc1c(COC(=O)NC(C)C)c(-c2ccc[n+](COC(=O)Cc3ccccc3)c2)n2c1CCC2", "inactive"),
    ("C/C(=N\\Nc1ccc([N+](=O)[O-])cc1[N+](=O)[O-])c1ccc2ccccc2n1", "inactive"),
    ("COc1ccc(N2C(=O)C3c4[nH]c5ccc(F)cc5c4C4CCC(c5ccccc5)CC4C3C2=O)cc1 (stereo unspecified)", "inactive"),
]

[Q] State the result this test recorded for O=C1C2=C(SCCS2)C(=O)c2ccccc21 .
[A] inactive

[Q] Please give the result for Cc1cccc2c1Oc1ncccc1C2NC(=O)CN(C)C (stereo unspecified) too.
[A] inactive

[Q] Please give the result for CC(=O)NNc1nc(C)c(C(=O)NNC(=O)C(=O)Nc2ccc([N+](=O)[O-])cc2[N+](=O)[O-])s1 too.
[A] inactive

[Q] Please give the result for Cc1cc(N(CCOS(C)(=O)=O)CCOS(C)(=O)=O)ccc1C=O too.
[A] inactive

[Q] Please give the result for COC1OC(OC)C2C(c3c(C)cc(C)cc3C)=NOC12 (stereo unspecified) too.
[A] inactive
